B1: TPR t1 (parent)
chain: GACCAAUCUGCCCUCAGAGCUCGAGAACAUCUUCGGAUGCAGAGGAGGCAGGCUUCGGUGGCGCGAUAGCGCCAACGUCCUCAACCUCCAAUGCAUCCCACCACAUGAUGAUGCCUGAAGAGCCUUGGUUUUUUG

Variants of: B1
measurement_notes: polymerase ribozyme fitness, log enrichment relative to wild type (log ratio); higher = more active; in vitro selection for triplet polymerase activity
// label = Yes if polymerase ribozyme fitness (log ratio) is not less than -2, otherwise No

Some solved cases for reference:
1) GACCAAUCUGCCCUCAGAGCUCGAGAACAUCUUCGAAUGCAGAGGAGGCAGGCUUCGGUGUCGCGAUAGCGGCAACAUCCUAAACCUCCAAUGCAUCUCACCACAUGAUGAUGCCUGAAGAGCCUUGGUUUUUUG	No
2) GACCAAUCUGCCCUCAGAGCUCGAGAACAUCUUCGGAUGCAGAGGAGGCAGGCUUCGGUGGCGCGAUAGCACCAACGUCCUUAACCUCCAAUGCAUCCCAACACAUGAUGAUGCCUGAAGAGCCUUGGUUUUUUG	Yes
3) GACCAAUCUGCCCUCAGAGCUCGAGAACAUCUUCGGAUGCAGAGGAGGCAGGCUUCGGUGGCGCGAUAGCGCCAACGUCCUCAGCCUCCAAUGCAUCCCACCACAUGAUGAUGCCUGAAGAGCCUUGGUGUUUUG	Yes
4) GACCAAUCUGCCCUCAGAGCUCGAGAACAUCUUCGGAUGCAGAGGAGGCAGGCUUCGGUGGCGCGAUAGCGCCUACGUCCUCAACCUCCAAUGCAUCCCACCACAUGAUGAACCCUGCAGAGCCUUGGUUUUUUU	No
5) GACCAAUGUGCCCUCAGAGCUCGAGAACAUCUUCGGAUGCAGAGGAGGCAGGCUUCGGUGGCCCGAUAGCGCCAACGUCCUCAACCUCCAAUGCAUCCCACCACAUGAUGAUGCCUCAAGAGCAUUGGUUUUUUG	Yes
6) GACCAAUCUUCCCUCAGCGCUCGAGAACAUCUUCGGAUGCAGAGGAGGCAGGCUUCGGUGGCGCGAUAGCGCCAACGUCCUCAACCUCCAAUGCAUCCCACCACAUGAUGAUGCCUGAAGAGCCUUGGUUUUUUG	No
7) GACCAAUCUGCCCUCAGAGCUCGAGAACAUCUUCGGAUGCAGAGGAGGCAGGCUUCGGUGGAGCGAUAGCGCCAACGUCCUCAACCUCCAAUGCAUUCCACCACAUGAUGAUGCCUGAAGAGCCUUGGUUUUUUG	Yes
8) GCCCAAUCUGCCCUCAGAGCUCGAGAACAUCUUCGGAUGCAGAGGAGGCAGGCUUCGGUGGCGCGAUAGCGCCAACGUCCUCAACCUCCAAUGCAUCCCACCACAUGAUGAUGCCUGAAGGGCCUUGGUUUUUUG	Yes

Ask: In plain terms: is recorded polymerase ribozyme fitness (log ratio) at least -2 for `GACUAAUCUGCCCUCAGAGCUCGAGAACAUCUUCGGAUGCAGAGGAGGCAGGCUUCGGUGACGCGAUAGCGCCAACGUCCUCAACCUCAAAUGCAUCCCACCACAUGAUGAUGCCUGAAGAGCCUUGGUUUUUUG` ?
Result: Yes

Ask: In plain terms: is recorded polymerase ribozyme fitness (log ratio) at least -2 for `GACCAAUCUGCCCUCAGAGCUCGAGAACAUCUUCGGAUGCAGAGGAGGUAGGCUUCGGUGGCGCGAUAGCGCCAACGUCCUCAACCUCCAAUGCAUCCCACCACAUGAUGAUGCCUGAACAGCCUUGGUUUUUUG` ?
Result: Yes

Ask: In plain terms: is recorded polymerase ribozyme fitness (log ratio) at least -2 for `GACCAAUCUGCCCUCAGAGCUCGAGGACAUCUUCGGAUGCAGAGGAGGUAGGCUUCGGUGGCACGAUAGCGCCAACGUCCUCACCCUCCAAUGCAUCCCACCACAUGAUGAUGCCUGAAGAGCCUUGGUUUUUUG` ?
Result: No

Ask: In plain terms: is recorded polymerase ribozyme fitness (log ratio) at least -2 for `GACCAAUCUGCCCUCAGAGCUCGAGAACAUCUUCGGAUGCAGAGGAGGCAGGCUUCGGUGGCGCGAUAGCGCCAACGUCCUCAACCUCCAAUGCAACCAACCACAGGAUGAUGCCUGAAGAGCCUUGGUUUUUUG` ?
Result: No

Ask: In plain terms: is recorded polymerase ribozyme fitness (log ratio) at least -2 for `GACCAAUCUGCCCUCAGAGCUCGAGAACAUCUUCGGAUUCUGUGGAGGCAGGCUUCGGUUGCGCGAUAGCGCCAACGUCCUAAACCUCCAAUGCAUCCCACCACAUGAUGAUGACUGAAGAGCCUUGGUUUUUUG` ?
Result: No

Ask: In plain terms: is recorded polymerase ribozyme fitness (log ratio) at least -2 for `GACCAAUCUGCACUCAGAGCUCGAGAACAUCUUCGGAUGCAGAGGAGGCAGGCUUCGGUGGUGCGAUAGCGCCAACGUCCUCAACCUCCAAUGCAUCCCACCACAUGAUGAUGCCUGAAGAGCCUUGUUUUUUUG` ?
Result: No

Ask: In plain terms: is recorded polymerase ribozyme fitness (log ratio) at least -2 for `GACCAAUGUGCCCUCAGAGCUCGAGAACAUCUUCCGAUGCAGAGGAGGCAGGCUUCGGUGGCGCGAUAGCGCCAACGUCCUCAACCUCUAAUGCAUCCCACCACAUGAUGAUGCCUGAAGAGCCUUGGUUUUUUG` ?
Result: No

Ask: In plain terms: is recorded polymerase ribozyme fitness (log ratio) at least -2 for `GACCAAUCUGCCCUCAGAGCUCGAGAACAUCUUCGGAUGAAAAGGAGUCAGGCUUCGAUGGCGCGAUAGCGCCAACGUCCUCAACCUCCGAUGCAUCCCACCACAUGAUGAUGCCUGAAGAGCCUUGGUUUUUUG` ?
Result: No

Ask: In plain terms: is recorded polymerase ribozyme fitness (log ratio) at least -2 for `GACCAAUCUGCCCUCAGAGCUCGAGAACAUCUUCGGGUGCAGAGGAGGCAGGCUUCGGUGGCGCGAUAGCGCCAACGUCCUCAACCUCAAAUGCAUCCCACCACAUGAUGAUGCCUGAAGAGCCUUGGUUUUUUG` ?
Result: No
